Target: human sphingosine-1-phosphate receptor 1 (S1P1) (Homo sapiens, UniProt P21453)
Sequence (P21453 whole entry): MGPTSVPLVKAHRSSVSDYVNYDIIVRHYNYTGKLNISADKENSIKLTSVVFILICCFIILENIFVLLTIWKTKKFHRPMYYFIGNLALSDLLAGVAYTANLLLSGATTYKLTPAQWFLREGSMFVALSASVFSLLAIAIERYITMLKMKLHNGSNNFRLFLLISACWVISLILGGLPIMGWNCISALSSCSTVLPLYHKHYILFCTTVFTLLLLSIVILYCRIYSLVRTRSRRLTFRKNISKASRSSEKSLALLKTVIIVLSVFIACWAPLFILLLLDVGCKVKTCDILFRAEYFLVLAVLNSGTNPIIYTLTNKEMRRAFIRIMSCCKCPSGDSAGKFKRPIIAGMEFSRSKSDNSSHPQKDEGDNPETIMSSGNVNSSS
Sequence (P32121 whole entry partner): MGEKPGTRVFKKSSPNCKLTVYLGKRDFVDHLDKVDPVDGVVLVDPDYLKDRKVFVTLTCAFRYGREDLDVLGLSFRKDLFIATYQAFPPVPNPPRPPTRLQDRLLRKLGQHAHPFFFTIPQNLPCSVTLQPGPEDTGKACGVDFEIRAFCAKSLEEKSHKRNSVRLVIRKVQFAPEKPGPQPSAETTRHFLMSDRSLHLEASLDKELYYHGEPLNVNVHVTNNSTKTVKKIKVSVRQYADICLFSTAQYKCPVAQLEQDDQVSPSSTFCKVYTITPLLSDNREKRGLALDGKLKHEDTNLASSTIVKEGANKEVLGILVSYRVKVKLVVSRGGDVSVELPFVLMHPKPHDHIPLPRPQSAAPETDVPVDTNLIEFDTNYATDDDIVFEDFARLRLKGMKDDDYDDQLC
Assay: β-Arrestin2 recruitment assay (PathHunter), S1P1 CHO-K1 cells
Assay type: cell-based
Conditions: CHO-K1; efficacy normalized to maximum efficacy of fingolimod; read-out: hS1P1 B-arrestin2 SPAN
experimentalEndpoint: Emax

Problem: Could you share which Emax value was measured for CC(C)Nc1ccc(-c2nnc(-c3cccc4[nH]cnc34)o2)cc1C#N [Compound 585] ?
Result: > 75%

Problem: Now consider CCC1(CC)CC(=O)c2cc(-c3nc(-c4cncc(C(F)(F)F)c4)no3)ccc2O1 [Compound 557] .
Result: < 75%

Problem: Now consider Cc1cn(C)nc1-c1noc(-c2ccc3c(c2)nnn3CC(C)(C)O)n1 [Compound 518] .
Result: < 75%

Problem: Now consider Cc1ccccc1-c1csc(-c2ccc3c(ccn3C(C)C)n2)n1 [Compound 409] .
Result: < 75%

Problem: Now consider CCC1(CC)CC(=O)c2cc(-c3nc(-c4ccn[nH]4)no3)ccc2O1 [Compound 470] .
Result: > 75%

Problem: Now consider Cc1nc2cc(-c3nnc(-c4ccc(NC(C)C)c(C#N)c4)o3)ccc2[nH]1 [Compound 560] .
Result: > 75%

Problem: Now consider CC(C)Cn1nnc2cc(-c3nc4cccc(Br)c4o3)ccc21 [Compound 454] .
Result: > 75%

Problem: Now consider CCC1(CC)CC(=O)c2cc(-c3nc(-c4ccc5[nH]c(=O)[nH]c5c4)no3)ccc2O1 [Compound 539] .
Result: < 75%

Problem: Now consider CC(C)n1nnc2cc(-c3nc4cccc(Br)c4o3)ccc21 [Compound 429] .
Result: > 75%

Problem: Now consider CC(C)Nc1ccc(-c2nnc(-c3ccc4c(c3)CCC(=O)N4)o2)cc1C#N [Compound 473] .
Result: > 75%

Problem: Now consider Cn1cnc2ccc(-c3nnc(-c4ccc(NCC(F)(F)CO)c(C#N)c4)o3)cc21 [Compound 635] .
Result: < 75%

Problem: Now consider Cc1ccncc1-c1noc(-c2cnc3c(c2)nnn3C(C)C)n1 [Compound 414] .
Result: > 75%

Problem: Now consider CC(C)n1nnc2cc(-c3nc(-c4ccc5nonc5c4)no3)ccc21 [Compound 498] .
Result: < 75%

Problem: Now consider CCC1(CC)CC(=O)c2cc(-c3nc(-c4cccs4)no3)ccc2O1 [Compound 467] .
Result: > 75%

Problem: Now consider CCC1(CC)C/C(=N\O)c2cc(-c3nc(-c4cccnc4)no3)ccc2O1 [Compound 431] .
Result: > 75%

Problem: Now consider CCC1(CC)CC(=O)c2cc(-c3nc(-c4cncc(N)c4)no3)ccc2O1 [Compound 502] .
Result: > 75%

Problem: Now consider Cn1ccnc1-c1noc(-c2ccc3c(c2)nnn3CC(C)(C)O)n1 [Compound 567] .
Result: < 75%

Problem: Now consider CC(C)Cn1nnc2cc(-c3nc4c(Cl)cccc4o3)ccc21 [Compound 453] .
Result: < 75%

Problem: Now consider CC(C)n1nnc2cc(-c3noc(-c4cccc5c4CCC5O)n3)ccc21 (stereo not drawn) [Compound 636] .
Result: > 75%

Problem: Now consider CCC1(CC)CC(=O)c2cc(-c3noc(-c4ccc(NCC5CC5)c(C#N)c4)n3)ccc2O1 [Compound 444] .
Result: < 75%

Problem: Now consider N#Cc1cc(-c2nnc(-c3ccc4[nH]c(=O)oc4c3)o2)ccc1NCC1CC1 [Compound 486] .
Result: > 75%
